- Test system: KRas G12C mutant
- measurementDescription: Ras GTP binding domain inhibition assay (Cy3-GTP/Cy5-GTP competition)
- Design: species or system human
- experimentalContext: 20 μM; without SOS
readoutType: KRas G12C mutant: % inh.

Guide cases for KRas G12C mutant: % inh., answers given:
{"columns": ["compound", "result"],
 "data": [
  ["O=C(NC1CCC1)c1nc(-c2ccccn2)nc(O)c1O [drawing 809]", "C (51-75% inhibition)"],
  ["COC1CCN(c2nc(-c3nccn3C)nc3sc(-c4ccnn4C)c(-c4ccccc4)c23)C1.Cl (centres unmarked)", "C (51-75% inhibition)"],
  ["COc1cccc(Oc2nc(-c3ccccn3)nc(O)c2OC)c1 [drawing 801]", "C (51-75% inhibition)"],
  ["Oc1nc(-c2cn3cccnc3n2)nc2c(-c3ccccn3)csc12 [drawing 848]", "0 (0% inhibition)"],
  ["Cn1ccc(-c2sc3nc(-c4nccn4C)nc(NCC4CCOC4)c3c2-c2ccccc2)n1 (centres unmarked) [drawing 861]", "0 (0% inhibition)"]
]}

# evaluate next
I am curious: what KRas G12C mutant: % inh. value has been reported for CN(Cc1ccccc1)C(=O)c1nc(-c2ccccn2)nc(O)c1O [drawing 799] ?
C (51-75% inhibition)
